Run description: Solubility in fasted-state simulated colonic fluid (FaSSCoF)
Format: physicochemical
Stated conditions: 24 h, pH 6.5
Structures can show the parent of a compound that is named as a salt.
Exercise: state measured pH 6.5 FaSSCoF Solubility, Run 2 for each of the molecules provided.
Report the value in mg/mL with no unit label.

Give the measured pH 6.5 FaSSCoF Solubility, Run 2 of COc1cc(Nc2cc(Oc3ccc(NC(=O)Nc4cc(C(C)(C)C)cc(NS(C)(=O)=O)c4OC)c4ccccc34)ccn2)ccc1C(=O)N1C[C@H](O)[C@@H](O)[C@H](O)[C@H]1CO [17(ci)] .
0.006

Return reported pH 6.5 FaSSCoF Solubility, Run 2; argument: COc1cc(Nc2cc(Oc3ccc(NC(=O)Nc4cc(C(C)(C)C)cc(NS(C)(=O)=O)c4OC)c4ccccc34)ccn2)ccc1C(=O)NCC(=O)O [17(ar) (hydrochloride salt)]
0.198

# query: pH 6.5 FaSSCoF Solubility, Run 2 of entry COc1cc(Nc2cc(Oc3ccc(NC(=O)Nc4cc(NS(C)(=O)=O)cc(C(C)(C)C)c4)c4ccccc34)ccn2)ccc1C(=O)NCCCN1CCN(C)CC1 [17(bp)]
0.024

Fill in the blank: the reported pH 6.5 FaSSCoF Solubility, Run 2 of COc1cc(Nc2cc(Oc3ccc(NC(=O)Nc4cc(C(C)(C)C)cc(NS(C)(=O)=O)c4OC)c4ccccc34)ccn2)ccc1C(=O)NCCNC(=O)CCC(=O)O [17(cd) (hydrochloride salt)] is ____.
0.049

Report pH 6.5 FaSSCoF Solubility, Run 2 for COc1cc(Nc2cc(Oc3ccc(NC(=O)Nc4cc(C(C)(C)C)cc(NS(C)(=O)=O)c4OC)c4ccccc34)ccn2)cc(OC)c1C(=O)NCCN1CCN(CCO)CC1 [Example 37] please.
0.024

Fill blank: measured pH 6.5 FaSSCoF Solubility, Run 2 of the molecule COc1cc(Nc2nccc(Oc3ccc(NC(=O)Nc4cc(C(C)(C)C)cc(NS(C)(=O)=O)c4OC)c4ccccc34)n2)ccc1C(=O)NCCC1CCN(C)CC1 [17(an)] is ____.
0.049

Any idea what pH 6.5 FaSSCoF Solubility, Run 2 was measured for COc1cc(Nc2cc(Oc3ccc(NC(=O)Nc4cc(C(C)(C)C)cc(NS(C)(=O)=O)c4OC)c4ccccc34)ccn2)ccc1C(=O)NCCC(=O)O [17(ay) (hydrochloride salt)] ?
0.028

Quick one: pH 6.5 FaSSCoF Solubility, Run 2 for COc1cc(Nc2cc(Oc3ccc(NC(=O)Nc4cc(C(C)(C)C)cc(NS(C)(=O)=O)c4OC)c4ccccc34)ccn2)ccc1C(=O)O [1 (sodium salt)] ?
0.032

* * *

Reported IC50 values, c-Src (Homo sapiens (Human), UniProt P12931).

What IC50 value was documented for this molecule, `COc1cc(Nc2cc(Oc3ccc(NC(=O)Nc4cc(C(C)(C)C)cc(NS(C)(=O)=O)c4OC)c4ccccc34)ccn2)ccc1C(=O)NCCN1CCCOCC1` ?
14 nM

What IC50 value was documented for this molecule, `COc1cc(Nc2cc(Oc3ccc(NC(=O)Nc4cc(C(C)(C)C)cc(NS(C)(=O)=O)c4OC)c4ccccc34)ccn2)ccc1C(=O)NCCCN1CCN(C)CC1` ?
24 nM

# get_value(readout='IC50', item= `COc1cc(Nc2cc(Oc3ccc(NC(=O)Nc4cc(C(C)(C)C)cc(NS(C)(=O)=O)c4OC)c4ccccc34)ccn2)cc(OC)c1C(=O)NCCOCCOCCOP(=O)(O)O` )
15 nM

* * *

Kindly state % Viability at 5 μg/mL for each of the entries shown.
Tested on: Jurkat cells
Run description: (r) Cell cytotoxicity assay
Type: cell-based, human
Stated conditions: 5 μg/mL, 24 hours
Use % as the unit, but write only the number.

Param item = `COc1cc(Nc2cc(Oc3ccc(NC(=O)Nc4cc(C(C)(C)C)cc(NS(C)(=O)=O)c4OC)c4ccccc34)ccn2)ccc1C(=O)NCCCC[C@H](N)C(=O)O` ; retrieve measured % Viability at 5 μg/mL.
92.6

Look at this molecule and give its reported % Viability at 5 μg/mL. `COc1cc(Nc2cc(Oc3ccc(NC(=O)Nc4cc(NS(C)(=O)=O)cc(C(C)(C)C)c4)c4ccccc34)ccn2)ccc1C(=O)NCCN1CCN(C)CC1`
45.3

I am curious: what % Viability at 5 μg/mL value has been reported for `COc1cc(Nc2cc(Oc3ccc(NC(=O)Nc4cc(C(C)(C)C)cc(NS(C)(=O)=O)c4OC)c4ccccc34)ccn2)ccc1C(=O)NCCC(=O)O` ?
94.6

So what's the measured % Viability at 5 μg/mL for this one? `COc1cc(Nc2cc(Oc3ccc(NC(=O)Nc4cc(C(C)(C)C)cc(NS(C)(=O)=O)c4OC)c4ccccc34)ccn2)ccc1C(=O)N[C@@H]1CCN(C)C1`
9.0

Item `COc1cc(Nc2cc(Oc3ccc(NC(=O)Nc4cc(C(C)(C)C)cc(C(N)=O)c4OC)c4ccccc34)ccn2)ccc1C(=O)O` has what recorded % Viability at 5 μg/mL?
95.9

If you can, please state the reported % Viability at 5 μg/mL value of `COc1cc(Nc2cc(Oc3ccc(NC(=O)Nc4cc(C(C)(C)C)cc(NS(C)(=O)=O)c4OC)c4ccccc34)ccn2)ccc1C(=O)NCCC1CCN(C)CC1` .
98.8

* * *

Run description: Pharmacokinetics and total colon distribution after oral administration
Type: in vivo
Stated conditions: male, C57BL/6, mouse, total colon; mice, oral 5 mg/kg, dosed compound measured, 1 h; read-out: total colon level
Measured parameter: concentration at 1 h
Could you kindly put the unit after your number?

// returns reported concentration at 1 h for input `COc1cc(Nc2cc(Oc3ccc(NC(=O)Nc4cc(C(C)(C)C)cc(NS(C)(=O)=O)c4OC)c4ccccc34)ccn2)ccc1C(=O)NCCOCCOCCOP(=O)(O)O`
0 ng/g

* * *

Please provide measured % Viability at 1 μg/mL for the entries that follow.
Tested on: Jurkat cells
Run description: (r) Cell cytotoxicity assay
Type: cell-based, human
Stated conditions: 1 μg/mL, 24 hours
Value expressed in %; do not type the unit.

Fill in: % Viability at 1 μg/mL of `COc1cc(Nc2cc(Oc3ccc(NC(=O)Nc4cc(C(C)(C)C)cc(NS(C)(=O)=O)c4OC)c4ccccc34)ccn2)ccc1C(=O)NCC1CCN(C)CC1` is ___
99.0

Endpoint output: % Viability at 1 μg/mL of `COc1cc(Nc2cc(Oc3ccc(NC(=O)Nc4cc(C(C)(C)C)cc(NS(C)(=O)=O)c4OC)c4ccccc34)ccn2)ccc1C(=O)NCCNC(=O)CCC(=O)O` . Value?
96.4

Requested field: % Viability at 1 μg/mL. Item: `COc1cc(Nc2cc(Oc3ccc(NC(=O)Nc4cc(C(C)(C)C)cc(NS(C)(=O)=O)c4OC)c4ccccc34)ccn2)ccc1P(C)(=O)O`
93.3

Using the record for `COc1cc(Nc2cc(Oc3ccc(NC(=O)Nc4cc(C(C)(C)C)cc(NS(C)(=O)=O)c4OC)c4ccccc34)ccn2)ccc1C(=O)NC[C@@H]1O[C@H](CO)[C@@H](O)[C@H](O)[C@H]1O` , report its % Viability at 1 μg/mL.
94.5

Name the reported % Viability at 1 μg/mL value associated with the compound `COc1cc(Nc2cc(Oc3ccc(NC(=O)Nc4cc(C(C)(C)C)cc(N(CCO)S(C)(=O)=O)c4OC)c4ccccc34)ccn2)ccc1C(=O)NCCN1CC[S+]([O-])CC1`
89.0

Would you kindly share the measured % Viability at 1 μg/mL for `COc1cc(Nc2cc(Oc3ccc(NC(=O)Nc4cc(C(C)(C)C)cc(NS(C)(=O)=O)c4OC)c4ccccc34)ccn2)ccc1-c1nn[nH]n1` ?
104.3

Sample `COc1cc(Nc2cc(Oc3ccc(NC(=O)Nc4cc(C(C)(C)C)cc(NS(C)(=O)=O)c4OC)c4ccccc34)ccn2)ccc1C(=O)NCCO` — what was its % Viability at 1 μg/mL?
102.8

Value lookup for % Viability at 1 μg/mL; key = `COc1cc(Nc2cc(Oc3ccc(NC(=O)Nc4cc(C(C)(C)C)cc(NS(C)(=O)=O)c4OC)c4ccccc34)ccn2)ccc1C(=O)NCCC(=O)N1C[C@H](O)[C@@H](O)[C@H](O)[C@H]1CO`
96.7

What does the data say about its % Viability at 1 μg/mL? Entry: `COc1cc(Nc2cc(Oc3ccc(NC(=O)Nc4cc(C(C)(C)C)cc(NS(C)(=O)=O)c4OC)c4ccccc34)ccn2)ccc1-n1ccccc1=O`
99.9

* * *

Tested on: Jurkat cells
Run description: (r) Cell cytotoxicity assay
Format: cell-based, human
Stated conditions: 5 μg/mL, 24 hours
Measured parameter: % Viability at 5 μg/mL (%)
Unit % implied. Number only.

Data request, read-out % Viability at 5 μg/mL, for COc1cc(Nc2cc(Oc3ccc(NC(=O)Nc4cc(C(C)(C)C)cc(NS(C)(=O)=O)c4OC)c4ccccc34)ccn2)ccc1CP(C)(=O)O [Example 70]
91.9

For COc1cc(Nc2nccc(Oc3ccc(NC(=O)Nc4cc(C(C)(C)C)cc(NS(C)(=O)=O)c4OC)c4ccccc34)n2)ccc1C(=O)NCCOCCOCCO [17(by)] , what is its reported % Viability at 5 μg/mL?
81.5

Which % Viability at 5 μg/mL is listed for COc1cc(Nc2cc(Oc3ccc(NC(=O)Nc4cc(C(C)(C)C)cc(NS(C)(=O)=O)c4OC)c4ccccc34)ccn2)ccc1S(=O)(=O)CCCN1CCN(C)CC1 [17(ch)] ?
10.2

% Viability at 5 μg/mL for COc1cc(Nc2cc(Oc3ccc(NC(=O)Nc4cc(C(C)(C)C)cc(NS(C)(=O)=O)c4OC)c4ccccc34)ccn2)cc(OC)c1C(=O)NCCN1CCOCC1 [17(ae)] ?
98.5

Sample COc1cc(Nc2cc(Oc3ccc(NC(=O)Nc4cc(C(C)(C)C)cc(NS(C)(=O)=O)c4OC)c4ccccc34)ccn2)cc(OC)c1C(=O)NCCCN1CCOCC1 [Example 23] — what was its % Viability at 5 μg/mL?
88.9

Please report the recorded % Viability at 5 μg/mL for COc1cc(Nc2cc(Oc3ccc(NC(=O)Nc4cc(C(C)(C)C)cc(NS(C)(=O)=O)c4OC)c4ccccc34)ccn2)ccc1C(=O)N(C)CCN1CCOCC1 [17(ab)] .
95.6

Look up % Viability at 5 μg/mL for this compound: COc1cc(Nc2cc(Oc3ccc(NC(=O)Nc4cc(C(C)(C)C)cc(NS(C)(=O)=O)c4OC)c4ccccc34)ccn2)ccc1C(=O)NCCNC(=O)CCC(=O)O [17(cd)]
96.5

Which % Viability at 5 μg/mL is listed for COc1cc(Nc2cc(Oc3ccc(NC(=O)Nc4cc(C(C)(C)C)cc(NS(C)(=O)=O)c4OC)c4ccccc34)ccn2)ccc1C(=O)NC[C@H](O)[C@@H](O)[C@H](O)[C@H](O)CO [17(bw)] ?
96.2

# get_value(readout='% Viability at 5 μg/mL', item= COc1cc(Nc2cc(Oc3ccc(NC(=O)Nc4cc(C(C)(C)C)cc(NS(C)(=O)=O)c4OC)c4ccccc34)ccn2)cc(OC)c1C(=O)N1CCN(CCN(C)C)CC1 [17(cg)] )
95.3

Request the reported % Viability at 5 μg/mL associated with COc1cc(Nc2nccc(Oc3ccc(NC(=O)Nc4cc(C(C)(C)C)cc(NS(C)(=O)=O)c4OC)c4ccccc34)n2)ccc1C(=O)NCCCN1CCN(C)CC1 [17(ap)]
40.1

Entry COc1cc(Nc2cc(Oc3ccc(NC(=O)Nc4cc(C(C)(C)C)cc(NS(C)(=O)=O)c4OC)c4ccccc34)ccn2)ccc1S(=O)(=O)CC(CO)(CO)CO [Example 45] has what % Viability at 5 μg/mL?
93.7

Give the measured % Viability at 5 μg/mL of COc1cc(Nc2cc(Oc3ccc(NC(=O)Nc4cc(C(C)(C)C)cc(NS(C)(=O)=O)c4OC)c4ccccc34)ccn2)ccc1C(=O)NCC[N+]1([O-])CCOCC1 [Example 33] .
95.5

If you can, please state the reported % Viability at 5 μg/mL value of COc1cc(Nc2cc(Oc3ccc(NC(=O)Nc4cc(C(C)(C)C)cc(N(CCO)S(C)(=O)=O)c4OC)c4ccccc34)ccn2)ccc1C(=O)NCCN1CC[S+]([O-])CC1 [Example 48] .
63.8

State the recorded % Viability at 5 μg/mL for this entry: COc1cc(Nc2cc(Oc3ccc(NC(=O)Nc4cc(C(C)(C)C)cc(NS(C)(=O)=O)c4OC)c4ccccc34)ccn2)ccc1C(=O)NC[C@H](O)[C@H](O)[C@H](O)CO [Example 42]
91.7

# input compound: COc1cc(Nc2cc(Oc3ccc(NC(=O)Nc4cc(C(C)(C)C)cc(NS(C)(=O)=O)c4OC)c4ccccc34)ccn2)ccc1S(=O)(=O)CCOCCOCCO [Example 40] ; wanted: its % Viability at 5 μg/mL
73.6

What value of measured % Viability at 5 μg/mL is listed for COc1c(NC(=O)Nc2ccc(Oc3ccnc(Nc4ccc(C(=O)NCCCN5CCOCC5)c(O)c4)c3)c3ccccc23)cc(C(C)(C)C)cc1NS(C)(=O)=O [Example 29] ?
46.6

What measured % Viability at 5 μg/mL goes with COc1cc(Nc2cc(Oc3ccc(NC(=O)Nc4cc(C(C)(C)C)cc(NS(C)(=O)=O)c4OC)c4ccccc34)ccn2)cc(OC)c1C(=O)NCCCN1CCN(C)CC1 [17(au)] ?
91.8

Please give the measured % Viability at 5 μg/mL for this compound: COCCN(C)CCNC(=O)c1ccc(Nc2cc(Oc3ccc(NC(=O)Nc4cc(C(C)(C)C)cc(NS(C)(=O)=O)c4OC)c4ccccc34)ccn2)cc1OC [17(ad)]
6.3

Any idea what its % Viability at 5 μg/mL is? The compound is COc1cc(Nc2cc(Oc3ccc(NC(=O)Nc4cc(C(C)(C)C)cc(NS(C)(=O)=O)c4OC)c4ccccc34)ccn2)ccc1-n1ccccc1=O [Example 31]
97.6

I would be grateful if you could share the reported % Viability at 5 μg/mL for COc1cc(Nc2cc(Oc3ccc(NC(=O)Nc4cc(C(C)(C)C)cc(NS(C)(=O)=O)c4OC)c4ccccc34)ccn2)ccc1C(=O)NCCN1CCN(CCO)CC1 [17(z)] .
70.9

Find the recorded % Viability at 5 μg/mL belonging to COc1cc(Nc2cc(Oc3ccc(NC(=O)Nc4cc(C(C)(C)C)cc(NS(C)(=O)=O)c4OC)c4ccccc34)ccn2)ccc1-c1nn[nH]n1 [Example 24] and report it.
92.4

Please report the recorded % Viability at 5 μg/mL for COc1cc(Nc2cc(Oc3ccc(NC(=O)Nc4cc(C(C)(C)C)cc(NS(C)(=O)=O)c4OC)c4ccccc34)ccn2)ccc1C(=O)NCCN1CCN(C(C)C)CC1 [17(bf)] .
1.5
